# STUDY_TARGET: Diaphorase
# METHOD_NOTES: peptide array, 10 uM diaphorase, binding without FAD / with FAD
Could you please report measured noFAD/FAD for the items listed next?
Numbers only.

Guide cases for noFAD/FAD, answers given:
>  <BINDER>
YSALFGLQEDGSG

>  <noFAD/FAD>
0.506

$$$$
>  <BINDER>
AQVAVDGFYVDGSG

>  <noFAD/FAD>
0.555

$$$$
>  <BINDER>
PRYSGQYGGSG

>  <noFAD/FAD>
1.45

$$$$
>  <BINDER>
VVQALFDGSG

>  <noFAD/FAD>
0.448

$$$$

Problem: What value of noFAD/FAD has been recorded for this entry: YRLNLKHPVGGSG
Solution: 1.16

Provenance of the data: patent US20190064177A1
